Hey, just so you know, these numbers are from patent US20240360208A1.

- System Tested: human CCL2 (MCP1) - wild type (wt) (human, UniProt P13500 24-99)
- Assay Procedure: cell-based or functional assay
Overview of reported THP1 chemotaxis [fold change compared to IgG control] across a group of binders:
Hi! Could you send only the number? It should be in fold, unit omitted.

Some solved entries appear below for comparison.
query: Return value of THP1 chemotaxis [fold change compared to IgG control] for input 1A4 (antibody, V domains shown, which format stood in each assay is not always stated; also called CCL2-0008) VH: QSLEESGGDLVKPGASLTLTCTASELDFYWICWVRQAPGKGLEWIACIGAGSSGSTYYASWAKGRFTVSKTSSTTVTLQMTSLTAADTATYFCARTGTEFTYYSLWGPGTLVTVSS VL: ALVMTQTPSSVSAAVGGTVTINCQASQSVYNNNMAWYQQKPGQPPKLLIYTASSLASGVPSHFRGSGSGTQFTLTISDLESDDAATYYCAGYKSYSNDEYGFGGGTEVVVK , no commentary.
result: 4.5

query: Return value of THP1 chemotaxis [fold change compared to IgG control] for input 1A5 (antibody, IgG1, V domains shown, also called CCL2-0009) VH: QEQLVESGGDLVKPEGSLTLTCTASGFSFSTSYWMCWVRQAPGKGLELIACISSSIGVTYYASWAEGRFTISKTSSTTVTLQMTSLTVADTATYFCARTTDDNWNVGFNLWGPGTLVTVSS VL: AYDMTQTPASVEVGVGGTVTIKCQASQSIGNRYLSWYQQKPGQPPKLLIYGTSTLASGVSSRFKGSGSGTQFTLTISGVESADSATYYCQQGATISYLDNAFGGGTEVVVK , no commentary.
result: 3.6

Field: next binder
query: Return value of THP1 chemotaxis [fold change compared to IgG control] for input Humanized 11K2 (=11K2) (antibody, IgG1, V domains shown, IgG1 with kappa light chain; also called CCL2-0002; humanized 11k2 IgG1) VH: QVQLVQSGAEVKKPGSSVKVSCKASGLTISDTYMHWVRQAPGQGLEWMGRIDPANGNTKFDPKFQGRVTITADTSTSTAYMELSSLRSEDTAVYYCARGVFGFFDYWGQGTTVTVSS VL: DIQMTQSPSSLSASVGDRVTITCKATEDIYNRLAWYQQKPGKAPKLLISGATSLETGVPSRFSGSGSGTDYTLTISSLQPEDFATYYCQQFWSAPYTFGGGTKVEIK , no commentary.
result: 7.2
